- Tested on: THP-1 cells
- procedure summary: Cell survival assay
- Format: cell-based, human
pIC50: −log10 of the molar value.
reported endpoint: pIC50

Q) For O=C(O)c1cc2ccccc2c(Cc2c([O-])c(C(=O)O)cc3ccccc23)c1[O-].[Na+].[Na+] [Na2EA, disodium embonate] , what is its reported pIC50?
A) ~3.92

----------
Measurement record for UniProtKB P23368; quantity recorded: log10 of IC50.
Sequence (P23368 19-584): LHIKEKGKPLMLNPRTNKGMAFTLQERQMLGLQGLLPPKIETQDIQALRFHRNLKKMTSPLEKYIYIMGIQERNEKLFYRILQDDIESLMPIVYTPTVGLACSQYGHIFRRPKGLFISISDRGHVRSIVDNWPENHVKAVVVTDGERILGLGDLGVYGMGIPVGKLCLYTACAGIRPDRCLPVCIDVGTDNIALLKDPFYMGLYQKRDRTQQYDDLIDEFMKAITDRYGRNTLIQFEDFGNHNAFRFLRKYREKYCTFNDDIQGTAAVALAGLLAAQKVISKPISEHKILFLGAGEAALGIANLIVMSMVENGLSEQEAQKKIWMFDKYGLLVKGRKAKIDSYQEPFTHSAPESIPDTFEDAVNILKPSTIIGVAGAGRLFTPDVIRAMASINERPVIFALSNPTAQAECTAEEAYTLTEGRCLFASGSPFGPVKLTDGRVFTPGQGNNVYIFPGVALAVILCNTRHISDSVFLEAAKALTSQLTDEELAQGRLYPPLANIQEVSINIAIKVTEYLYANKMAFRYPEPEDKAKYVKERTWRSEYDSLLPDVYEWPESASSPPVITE
Please interpret these as log10 of IC50 where IC50 is in µM.

O=C(O)c1cc2ccccc2cc1O [3-hydroxy-2-naphthoic acid] : 2.02
O=C(O)c1ccc2ccccc2c1O [1-hydroxy-2-naphthoic acid] : 1.87
O=C(O)c1cc2cc(Br)ccc2cc1O [7-bromo-3-hydroxy-2-naphthoic acid] : 2.49
O=C(O)c1ccccc1O : 2.90
O=C(O)c1cc2cc(O)ccc2cc1O [3,7-dihydroxy-2-naphthoic acid] : 1.58

Q) # value lookup — system UniProtKB P23368, readout log10 of IC50, item "O=C(O)c1ccc2cc(C(=O)O)ccc2c1"
A) 2.55

Q) Report log10 of IC50 for "O=C(O)c1cccc(C(=O)c2ccccc2)c1" tested on UniProtKB P23368.
A) 2.81

Q) Tell me reported log10 of IC50 for O=C(O)c1cc2cccc(O)c2cc1O [3,5-dihydroxy-2-naphthoic acid] , tested with UniProtKB P23368.
A) 1.09

----------
- Test system: MV4-11 cells
- procedure summary: Cell survival assay
- Format: cell-based, human
reported endpoint: IC50

Q) Look at this molecule and give its reported IC50. O=C(O)c1cc2ccccc2c(Cc2c([O-])c(C(=O)O)cc3ccccc23)c1[O-].[Na+].[Na+] [Na2EA, disodium embonate]
A) ~120 µM
